assay.text: log P determination by HPLC on reversed-phase column (C18), EEC Directive 79/831 Annex V.A8, acidic (formic acid)
Type: physicochemical
experimental.context: HPLC method a), acetonitrile/water with formic acid
Measured logP, listed per entry.

molecule.smiles: Cn1nc(-c2c(C(F)(F)F)c(C(F)(F)C(F)(F)F)nn2C)nc1-c1ccc(Cl)c(C(=O)NC2CC2)c1
logP: 3.67
--
molecule.smiles: Cn1nc(C(F)(F)C(F)(F)F)c(C(F)(F)F)c1-c1cc(-c2ccc(Cl)c(C(=O)NCC(=O)NCC(F)(F)F)c2)no1
logP: 3.87

Measured logP, Cn1nc(-c2ccc(Cl)c(C(=O)NCc3ccccc3)c2)nc1-c1c(C(F)(F)F)c(C(F)(F)C(F)(F)F)nn1C : 4.43

Data point: Cn1nc(C(F)(F)C(F)(F)F)c(C(F)(F)F)c1-c1cc(-c2ccc(Cl)c(C(=O)NC3CSC3)c2)no1 ; logP = 4.37

Reported logP of Cn1nc(C(F)(F)C(F)(F)F)c(C(F)(F)F)c1-c1nc(-c2ccc(Cl)c(C(=O)NC3CC3)c2)no1 : 4.26

Query Cn1nc(C(F)(F)C(F)(F)F)c(C(F)(F)F)c1-c1noc(-c2ccc(Cl)c(C(=O)NC3(C#N)CC3)c2)n1 yields logP of 4.01

Documented logP of Cn1nc(-c2c(C(F)(F)F)c(C(F)(F)C(F)(F)F)nn2C)nc1-c1ccc(Cl)c(C(=O)Nc2ccccc2)c1 : 4.42

* * *

# logP per record follows
assay.text: log P determination by HPLC on reversed-phase column (C18), EEC Directive 79/831 Annex V.A8, acidic (formic acid)
Assay type: physicochemical
experimental.context: HPLC method a), acetonitrile/water with formic acid
Text: […]
Simply state the number, no unit and no words.

// solved cases for logP follow
molecule: CCn1nc(-c2ccc(Cl)c(C(=O)Nc3ccccc3)c2)nc1-c1c(C(F)(F)F)c(C(F)(F)C(F)(F)F)nn1C [Ibg-12]
logP: 4.85
//
molecule: Cn1nc(C(F)(F)C(F)(F)F)c(C(F)(F)F)c1-c1coc(-c2ccc(Cl)c(C(=O)NC3CC3)c2)c1 [Iac-3]
logP: 4.08
//
molecule: Cn1nc(C(F)(F)C(F)(F)F)c(C(F)(F)F)c1-c1cc(-c2ccc(Cl)c(C(=O)NC3(C(F)(F)F)CC3)c2)no1 [Iap-5]
logP: 4.55

Entry under test: CCn1nc(-c2c(C(F)(F)F)c(C(F)(F)C(F)(F)F)nn2C)nc1-c1ccc(Cl)c(C(=O)NCc2ccccc2)c1 [Ibh-10] . Its logP was 4.59

* * *

System: Phaedon cochleariae
assay.text: Phaedon cochleariae spray test
experimental.context: 100 g/ha, larvae on Chinese cabbage leaf discs, after 7 days
Entries annotated with measured efficacy
All answers are understood in %, so give the number only.

compound: Cn1nc(C(F)(F)C(F)(F)F)c(C(F)(F)F)c1-c1cc(-c2ccc(Cl)c(C(=O)NCC(F)(F)F)c2)no1 [Iap-2]
study.target: Phaedon cochleariae
efficacy [%]: 100

compound: Cn1nc(C(F)(F)C(F)(F)F)c(C(F)(F)F)c1-c1cc(-c2ccc(Cl)c(C(=O)NC3(C(F)(F)F)CC3)c2)no1 [Iap-5]
study.target: Phaedon cochleariae
efficacy [%]: 100

compound: Cn1nc(C(F)(F)C(F)(F)F)c(C(F)(F)F)c1-c1coc(-c2ccc(Cl)c(C(=O)NC3(C#N)CC3)c2)c1 [Iac-1]
study.target: Phaedon cochleariae
efficacy [%]: 100

compound: Cn1nc(C(F)(F)C(F)(F)F)c(C(F)(F)F)c1-c1cc(-c2ccc(Cl)c(C(=O)NCC(=O)NCC(F)(F)F)c2)no1 [Iap-6]
study.target: Phaedon cochleariae
efficacy [%]: 100

compound: Cn1nc(C(F)(F)C(F)(F)F)c(C(F)(F)F)c1-c1ncc(-c2cccc(C(=O)NC3(C#N)CC3)c2)s1 [Iaq-1]
study.target: Phaedon cochleariae
efficacy [%]: 100

compound: Cn1nc(C(F)(F)C(F)(F)F)c(C(F)(F)F)c1-c1cc(-c2ccc(Cl)c(C(=O)NC3(C#N)CC3)c2)no1 [Iap-3]
study.target: Phaedon cochleariae
efficacy [%]: 100

Now examine the next entry.
Looking up Cn1nc(C(F)(F)C(F)(F)F)c(C(F)(F)F)c1-c1coc(-c2ccc(Cl)c(C(=O)NC3CC3)c2)c1 [Iac-3] , I see its efficacy listed as 100

* * *

Below, each entry is listed alongside its reported logP.
assay.text: log P determination by HPLC on reversed-phase column (C18), EEC Directive 79/831 Annex V.A8, acidic (formic acid)
Type: physicochemical
experimental.context: HPLC method a), acetonitrile/water with formic acid
Write the number on its own, no unit after it.

compound: Cn1nc(C(F)(F)C(F)(F)F)c(C(F)(F)F)c1-c1nnc(-c2ccc(Cl)c(C(=O)NC3CC3)c2)[nH]1 [Ibi-3]
logP: 3.40
--
compound: CC(C)n1nc(-c2ccc(Cl)c(C(=O)Nc3ccccc3)c2)nc1-c1c(C(F)(F)F)c(C(F)(F)C(F)(F)F)nn1C [Ibg-11]
logP: 5.13
--
compound: Cn1nc(C(F)(F)C(F)(F)F)c(C(F)(F)F)c1-c1noc(-c2ccc(Cl)c(C(=O)Nc3ccc(F)cc3)c2)n1 [Ibe-3]
logP: 4.91
--
compound: Cn1nc(C(F)(F)C(F)(F)F)c(C(F)(F)F)c1-c1nc(-c2cccc(C(=O)NCC(F)(F)F)c2)n[nH]1 [Ibg-3]
logP: 3.54
--
compound: CCn1nc(-c2ccc(Cl)c(C(=O)NCC(F)(F)F)c2)nc1-c1c(C(F)(F)F)c(C(F)(F)C(F)(F)F)nn1C [Ibg-6]
logP: 4.41
--
compound: Cn1nc(C(F)(F)C(F)(F)F)c(C(F)(F)F)c1-c1nnc(-c2ccc(Cl)c(C(=O)NCC(F)(F)F)c2)[nH]1 [Ibi-2]
logP: 3.73

Please look at the following compound next.
compound Cn1nc(C(F)(F)C(F)(F)F)c(C(F)(F)F)c1-c1noc(-c2ccc(Cl)c(C(=O)NCc3ccccc3)c2)n1 [Ibe-2] , logP observed: 4.76

* * *

System: Rhipicephalus sanguineus
assay.text: Rhipicephalus sanguineus in vitro contact test with adult brown dog ticks
Type: in vivo
experimental.context: application rate 5 μg/cm^2 (500 g/ha), after 48 h, adult ticks dead or moribund
Documented efficacy across a set of compounds
Please reply with the bare figure in % and do not write the unit itself.

Worked cases, efficacy given:
molecule.smiles: Cn1nc(C(F)(F)C(F)(F)F)c(C(F)(F)F)c1-c1csc(-c2ccc(Cl)c(C(=O)NC3CC3)c2)c1
readout.name: efficacy
recorded.value: 100
//
molecule.smiles: Cn1nc(C(F)(F)C(F)(F)F)c(C(F)(F)F)c1-c1cc(-c2ccc(Cl)c(C(=O)NC3CC3)c2)no1
readout.name: efficacy
recorded.value: 100
//
molecule.smiles: Cn1nc(C(F)(F)C(F)(F)F)c(C(F)(F)F)c1-c1cc(-c2ccc(Cl)c(C(=O)NC3CSC3)c2)no1
readout.name: efficacy
recorded.value: 100
//
molecule.smiles: Cn1nc(C(F)(F)C(F)(F)F)c(C(F)(F)F)c1-c1nc(-c2ccc(Cl)c(C(=O)NC3(C#N)CC3)c2)no1
readout.name: efficacy
recorded.value: 80

Entry Cn1nc(C(F)(F)C(F)(F)F)c(C(F)(F)F)c1-c1cc(-c2ccc(Cl)c(C(=O)NC3(C#N)CC3)c2)no1 , Rhipicephalus sanguineus data, efficacy value: 100

* * *

Measured logP accompanies every entry in the list below.
assay.text: log P determination by HPLC on reversed-phase column (C18), EEC Directive 79/831 Annex V.A8, acidic (formic acid)
Assay type: physicochemical
experimental.context: HPLC method a), acetonitrile/water with formic acid
Respond numerically, and do not add a unit to the figure.

molecule.smiles: Cn1nc(C(F)(F)C(F)(F)F)c(C(F)(F)F)c1-c1nc(-c2ccc(Cl)c(C(=O)Nc3ccc(F)cc3)c2)ns1
logP: 5.17

Note to self: logP recorded for CC(C)n1nc(-c2c(C(F)(F)F)c(C(F)(F)C(F)(F)F)nn2C)nc1-c1ccc(Cl)c(C(=O)NCC(F)(F)F)c1 was 4.68

So for CCn1nc(-c2ccc(Cl)c(C(=O)NCc3ccccc3)c2)nc1-c1c(C(F)(F)F)c(C(F)(F)C(F)(F)F)nn1C , the logged logP turned out to be 4.71

Form: compound = Cn1nc(C(F)(F)C(F)(F)F)c(C(F)(F)F)c1-c1nc(-c2cccc(C(=O)NC3CC3)c2)n[nH]1 ; logP = 3.24

Memo: CC(C)n1nc(-c2c(C(F)(F)F)c(C(F)(F)C(F)(F)F)nn2C)nc1-c1ccc(Cl)c(C(=O)NCc2ccccc2)c1 , reported logP: 4.98

# compound CC(C)n1nc(-c2ccc(Cl)c(C(=O)NCc3ccccc3)c2)nc1-c1c(C(F)(F)F)c(C(F)(F)C(F)(F)F)nn1C ; its logP = 4.93

// logP lookup, compound = Cn1nc(-c2c(C(F)(F)F)c(C(F)(F)C(F)(F)F)nn2C)nc1-c1ccc(Cl)c(C(=O)NCc2ccccc2)c1 , result: 4.29
